Assay: xn = mol fraction of the nth substance listed, in the solute-free solvent
Conditions: 298.15 K; x2 = 0.5454
recorded.endpoint: solubility (g/100 g solution)
Give bare numbers.

Some molecules with known solubility (g/100 g solution) results, for comparison:
molecule	solubility (g/100 g solution)
Cc1[nH]c(=O)c(C#N)cc1-c1ccncc1 + CC(C)O + O	0.0155
c1ccc2[nH]c(-c3cscn3)nc2c1 + CCCO + O	0.545
c1ccc2[nH]c(-c3cscn3)nc2c1 + CC(C)O + O	0.262
Nc1cccc(S(=O)(=O)c2cccc(N)c2)c1 + CC(C)O + O	0.895
Nc1nccnc1Cl + CC(C)O + O	0.982

In one line, give reported solubility (g/100 g solution) of the entry CN1CCN(C2=Nc3cc(Cl)ccc3Nc3ccccc32)CC1 + CC(C)O + O .
1.47

====

Experiment: xn = mol fraction of the nth substance listed, in the solute-free solvent
Conditions: 293.15 K; x2 = 0.2
recorded.endpoint: solubility (g/100 g solution)
Numbers only.

Some compounds with known solubility (g/100 g solution) results, for comparison:
compound	result.number
S=c1[nH]ncs1 + CCCO + O	6.75
S=c1[nH]ncs1 + CCO + O	4.16
CC(N)C(=O)O (configuration not stated) + O + CO	0.222
CC(N)C(=O)O (configuration not stated) + O + CCCO	0.0536
S=c1[nH]ncs1 + CO + O	2.06
CC(N)C(=O)O (configuration not stated) + O + CC(C)O	0.046

Shifting focus to the compound that follows.
In one line, give reported solubility (g/100 g solution) of the entry Cc1ncc(C[n+]2csc(CCO)c2C)c(N)n1.O=[N+]([O-])[O-] + O + CO .
0.52

====

Kindly state solubility (g/100 g solution) for each of the entries shown.
Experiment: xn = mol fraction of the nth substance listed, in the solute-free solvent
Details: 308.15 K; x2 = 0.4772
Give bare numbers.

compound	recorded.endpoint	result.number
CC(C)OC(=O)C(C)NP(=O)(OCC1OC(n2ccc(=O)[nH]c2=O)C(C)(F)C1O)Oc1ccccc1 (centres undefined) + CCO + O	solubility (g/100 g solution)	32.5
Nc1cccc(S(=O)(=O)c2cccc(N)c2)c1 + CCO + O	solubility (g/100 g solution)	1.92
Cc1[nH]c(=O)c(C#N)cc1-c1ccncc1 + CCO + O	solubility (g/100 g solution)	0.00815

Shifting focus to the compound that follows.
In one line, give reported solubility (g/100 g solution) of the entry COc1cc2c(cc1OC)-c1cc3ccc(OC)c(OC)c3c[n+]1CC2.[Cl-] + CCO + O .
5.02

====

Experiment: xn = mol fraction of the nth substance listed, in the solute-free solvent
Conditions: 293.15 K; x2 = 0.3698
Kindly state solubility (g/100 g solution) for each of the entries shown.
One number for each entry.

Some compounds with known solubility (g/100 g solution) results, for comparison:
compound	result.number
Nc1cccc(S(=O)(=O)c2cccc(N)c2)c1 + CCO + O	0.907
CC(C)OC(=O)C(C)NP(=O)(OCC1OC(n2ccc(=O)[nH]c2=O)C(C)(F)C1O)Oc1ccccc1 (centres undefined) + CCO + O	17.3
COc1cc2c(cc1OC)-c1cc3ccc(OC)c(OC)c3c[n+]1CC2.[Cl-] + CCO + O	2.54

Shifting focus to the compound that follows.
In one line, give reported solubility (g/100 g solution) of the entry Cc1[nH]c(=O)c(C#N)cc1-c1ccncc1 + CCO + O .
0.00446

The values you see were collected from the CheMixHub drug solubility set.
